Target: T1, human BTN2A1, expressed on HEK293 cells (human, UniProt Q7KYR7 29-527)
T1 construct: also called NM_007049
T1 sequence: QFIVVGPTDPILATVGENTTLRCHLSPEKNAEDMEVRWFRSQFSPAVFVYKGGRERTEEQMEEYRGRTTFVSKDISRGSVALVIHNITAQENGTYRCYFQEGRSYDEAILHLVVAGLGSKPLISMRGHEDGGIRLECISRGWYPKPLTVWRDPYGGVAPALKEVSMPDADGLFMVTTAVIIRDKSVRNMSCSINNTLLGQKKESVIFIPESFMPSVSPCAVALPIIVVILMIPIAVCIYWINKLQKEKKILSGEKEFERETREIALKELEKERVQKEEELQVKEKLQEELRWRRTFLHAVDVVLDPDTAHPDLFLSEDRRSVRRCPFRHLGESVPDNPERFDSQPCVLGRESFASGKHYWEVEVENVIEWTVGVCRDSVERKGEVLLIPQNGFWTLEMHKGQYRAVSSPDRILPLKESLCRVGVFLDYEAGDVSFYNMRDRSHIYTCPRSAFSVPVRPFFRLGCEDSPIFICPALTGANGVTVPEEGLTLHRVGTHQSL
Test: flow cytometry on transfected HEK293 cells, 2 ug/ml IgG
measured parameter: fold fluorescence change versus mock (ZSgreen only) cells (fold)
# value in fold; strip the unit string

binder	test value
Antibody MH12, IgG1null format (antibody, V domains shown, Tested as IgG1null (human IgG1 L234A, L235A, G237A) with human Ckappa; also called clone MH12) VH: EVQLVESGGGLVQPGGSLRLSCAASGFTFSSYGMSWVRQAPGKGLEWVANIWQDGSEKYVDSVKGRFTISRDNAKNSLYLQMNSLRAEDTAVYYCARAYGNYWYIDRWGQGTTVTVSS VL: DIVMTQSPDSLAVSLGERATINCKSSQSVTNDVAWYQQKPGQPPKLLINYAYHRFTGVPDRFSGSGYGTDFTLTISSLQAEDVAVYYCHQAYSTPYTFGQGTKLEIK	1.3

Sample Antibody MH8, IgG1null format (antibody, V domains shown, Tested as IgG1null (human IgG1 L234A, L235A, G237A) with human Ckappa; also called clone MH8) VH: EVQLVESGGGLVQPGGSLRLSCAASGFTFSSYGMSWVRQAPGKGLEWVANIWQDGSTKYVDSVKGRFTISRDNAKNSLYLQMNSLRAEDTAVYYCARAYGNYWYIDRWGQGTTVTVSS VL: DIVMTQSPDSLAVSLGERATINCKSSQSVTNDVAWYQQKPGQPPKLLINYAYHRFTGVPDRFSGSGYGTDFTLTISSLQAEDVAVYYCHQAYSTPYTFGQGTKLEIK ; fold fluorescence change versus mock (ZSgreen only) cells observed: 1.1

Sample Antibody MH4, IgG1null format (antibody, V domains shown, Tested as IgG1null (human IgG1 L234A, L235A, G237A) with human Ckappa; also called clone MH4) VH: EVQLVESGGGLVQPGGSLRLSCAASGFSLSSYGMSWVRQAPGKGLEWVAVIWQDGSTNYVDSVKGRFTISRDNAKNSLYLQMNSLRAEDTAVYYCARAYGNYWYIDRWGQGTTVTVSS VL: DIVMTQSPDSLAVSLGERATINCKSSQSVTNDVAWYQQKPGQPPKLLINYAYHRFTGVPDRFSGSGYGTDFTLTISSLQAEDVAVYYCHQAYSTPYTFGQGTKLEIK ; fold fluorescence change versus mock (ZSgreen only) cells observed: 1.2

Sample Hu317 humanized anti-PD1 antibody, IgG1null format (antibody, V domains shown, Tested as IgG1null (human IgG1 L234A, L235A, G237A) with human Ckappa; also called hu317 IgG1) VH: QVQLQESGPGLVKPSETLSLTCTVSGFSLTSYGVHWIRQPPGKGLEWIGVIYADGSTNYNPSLKSRVTISKDTSKNQVSLKLSSVTAADTAVYYCARAYGNYWYIDVWGQGTTVTVSS VL: DIVMTQSPDSLAVSLGERATINCKSSESVSNDVAWYQQKPGQPPKLLINYAFHRFTGVPDRFSGSGYGTDFTLTISSLQAEDVAVYYCHQAYSSPYTFGQGTKLEIK ; fold fluorescence change versus mock (ZSgreen only) cells observed: 1.2
